The origin of these recorded values is patent US20260092061A1.

# key: entry, value: Dmax
# measuredTarget: BRD9 (Homo sapiens)
# Sequence (Q9H8M2 whole entry): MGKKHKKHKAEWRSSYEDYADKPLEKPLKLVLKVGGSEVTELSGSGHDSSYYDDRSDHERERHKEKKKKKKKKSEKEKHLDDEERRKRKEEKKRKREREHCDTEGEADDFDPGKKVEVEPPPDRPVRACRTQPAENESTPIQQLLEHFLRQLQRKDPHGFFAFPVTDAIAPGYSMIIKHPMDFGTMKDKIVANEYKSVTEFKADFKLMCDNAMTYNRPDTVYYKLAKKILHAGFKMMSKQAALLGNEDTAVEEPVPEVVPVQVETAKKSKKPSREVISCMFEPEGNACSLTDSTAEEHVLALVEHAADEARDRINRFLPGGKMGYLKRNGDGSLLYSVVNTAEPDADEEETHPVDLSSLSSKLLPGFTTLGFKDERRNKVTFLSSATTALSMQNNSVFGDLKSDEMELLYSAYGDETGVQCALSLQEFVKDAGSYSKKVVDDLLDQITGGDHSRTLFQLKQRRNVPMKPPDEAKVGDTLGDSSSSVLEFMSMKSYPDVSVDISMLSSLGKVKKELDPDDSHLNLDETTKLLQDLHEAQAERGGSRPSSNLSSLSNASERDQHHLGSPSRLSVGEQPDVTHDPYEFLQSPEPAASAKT
# assayProtocol: Degradation of BRD9 (IF), immunofluorescence in MV4-11 cells, 24 hours (Assay Protocol 2)
# Format: cell-based
# Design: A suspension of MV4-11 cells (ATCC CRL-9591) was prepared; host or cells: MV4-11
# conditions: MV4-11, Assay protocol 2; BRD9 degradation; read-out: Dmax

Before answering, review these 3 worked examples.
| compound | Dmax |
| --- | --- |
| COc1cc(-c2cn(C)c(=O)c(C)c2C)ccc1OC1CCN(Cc2cccc3c2CCN(C(=O)/C(C#N)=C/C(C)(C)C)C3C)CC1 (mixture of isomers) | > 75% |
| COc1cc(-c2cn(C)c(=O)c(C)c2C)cc(OC)c1CN1CCC(COc2cccc3c2CCN(C(=O)/C(C#N)=C/c2cccc(Br)n2)C3C)CC1 (mixture of isomers) | 70 to 75% |
| COc1cc(-c2cn(C)c(=O)c(C)c2C)cc(OC)c1CN1C[C@H](C)N(Cc2cccc3c2CCN(C(=O)/C(C#N)=C/C(C)(C)C)C3C)C[C@@H]1C (mixture of isomers) | 40 to 70% |

Could you tell me which Dmax is on file for COc1cc(-c2cn(C)c(=O)c(C)c2C)ccc1CN1CCN(Cc2cccc3c2CCN(C(=O)/C(C#N)=C/C(C)(C)C)C3C)C2(CC2)C1 (mixture of isomers) ?
> 75%

Could you tell me which Dmax is on file for COc1cc(-c2cn(C)c(=O)c(C)c2C)cc(OC)c1CN1CCN(Cc2ccc3c(c2)[C@@H](C)N(C(=O)/C(C#N)=C/C(C)(C)O)CC3)C2(CC2)C1 (single isomer, unassigned) ?
> 75%

Could you tell me which Dmax is on file for COc1cc(-c2cn(C)c(=O)c(C)c2C)cc(OC)c1CN1CCC2(CCN(c3ccc4c(c3)[C@H](C)N(C(=O)/C(C#N)=C/C(C)(C)C)CC4)CC2)C1 ?
40 to 70%

Could you tell me which Dmax is on file for COc1cc(-c2cn(C)c(=O)c(C)c2C)cc(OC)c1CN1CCN(Cc2cccc3c2CCN(C(=O)/C(C#N)=C/c2cccc(Br)n2)C3C)C(C)(C)C1 (mixture of isomers) ?
> 75%

Could you tell me which Dmax is on file for COc1cc(-c2cn(C)c(=O)c(C)c2C)cc(OC)c1C(=O)N1CCC(Oc2cccc(C3CCCN3C(=O)/C(C#N)=C/C(C)(C)C)c2)CC1 (mixture of isomers) ?
70 to 75%

Could you tell me which Dmax is on file for COc1cc(-c2cn(C)c(=O)c(C)c2C)ccc1CC1CCN(Cc2cccc3c2CCN(C(=O)/C(C#N)=C/C(C)(C)C)C3C)C(C)(C)C1 (mixture of isomers) ?
> 75%

Could you tell me which Dmax is on file for COc1cc(-c2cn(C)c(=O)c(C)c2C)cc(OC)c1CN1C[C@@H](C)N(Cc2cccc3c2CCN(C(=O)/C(C#N)=C/C(C)(C)C)C3C)C[C@H]1C (mixture of isomers) ?
> 75%
